protocol_details: 14C assay with IPTG-induced recombinant E. coli cells (14CO2 capture from [14C]-carboxyl-labeled dicamba)
test_conditions: IPTG-induced recombinant E. coli cells; [14C]-carboxyl-labeled dicamba; 14CO2 capture
measured_endpoint: Dicamba Decarboxylase Activity

INSERT INTO assay_data (molecule, measured_endpoint, reported) VALUES
  ('6 (protein, Treponema brennaborense) MAEILSPEESIYYSKLSNDILAEGIKKNPTRFRGFAALPTPDPIQAAMELERCIKLGGFVGAIINGHINGHYLDEIQFDPILEAADALDVPLYIHPAVPPKAIIDTYYKMNDTYAQTVMVSGGWGWHIETGVHVLRLISSGVFDRHPNLKIVIGHLGEGLPFFMHRLNNAIGGNLKKSYSTYLKENIYYTISGFNDPDLFQFVLKKVGENNIMFSSDYPFNFPKREVELFNELNISEEVREKISFKNAERILKI', 'Dicamba Decarboxylase Activity', 'No'),
  ('107 (protein, listed as Rhodopseudomonas palustris) MAIIDIHGHYTTAPKALEDWRNRQIAGIKDPSVMPKVSELKISDDELQASIIENQLKKMQERGSDLTVFSPRASFMAHHIGDFNVSSTWAAICNELCYRVSQLFPDNFIGAAMLPQSPGVDPKTCIPELEKCVKEYGFVAINLNPDPSGGHWTSPPLTDRIWYPIYEKMVELEIPAMIHVSTSCNTCFHTTGAHYLNADTTAFMQCVAGDLFKDFPELKFVIPHGGGAVPYHWGRFRGLAQEMKKPLLEDHVLNNIFFDTCVYHQPGIDLLNTVIPVDNVLFASEMIGAVRGIDPRTGFYYDDTKRYIEASTILTPEEKQQIYEGNARRVYPRLDAALKAKGK', 'Dicamba Decarboxylase Activity', 'No'),
  ('70 (protein, listed as Alicyclobacillus acidocaldarius) MAIEPNRAADVHTHFLPTEVLEFLKREPRIQVDLERRAPDKEPFLTVEGRWSFELKRMFVDFEAFASAYRQAGIGLALVSPLPQLFVYHLPAEMGAQVAEVYNDALRDVLAPHRERFRPLATLPLADPTAAARELERRMDEGFVGAIVGPGVGEALIGDEAFWPLWEVADARRAVLFLHPLLHADPRAARLMLPNLVGVPWETTLAAAHLVLSGLLDRYPGARVLLAHGGGFLPYQIGRIEQGYDVWPQVRGRLQDRPTAYLRRMFYDNVLWSDAALRCLIDVVGADRVLAGSDFPFDLSAWPPRPGADVSVLAGGSGREGRLS', 'Dicamba Decarboxylase Activity', 'Low'),
  ('16 (protein, listed as Staphylococcus aureus) MAQNNMEANQMKSITFEEHYVIEDIQKETMNAISADPKGVPMKVMLEGLEKKTGFTNADELSHHDERIQFMNNQDVQIQVLSYGNGSPSNLVGQKAIELCQKANDQLANYIAQYPNRFVGFATLPINEPETAAREFERCINDLGFKGALIMGRAQDGFLDQDKYDIIFKTAENLGVPIYLHPAPVNSDIYQSYYKGNYPEVTAATFACFGYGWHIDVGIHAIHLVLSGIFDRYPKLNMIIGHWGEFIPFFLERMDEALFAEHLNHPVSYYFKNNFYITPSGMLTKPQFDLVKKEAGIDRILYAADYPYIEPEKLGVFLDELGLTDEEKEKISYTNGAKLLGLSSNN', 'Dicamba Decarboxylase Activity', 'High');
